biological target: telomerase (Homo sapiens, UniProt O14746); construct: A549 cells (human epithelial cell lung carcinoma, ATCC, Manassas, VA) were lysed in; host or cells: A549 cell lysate (CHAPS extract, 5 µg total protein); assay: TRAP / RTQ-TRAP telomerase activity assay in A549 cell-free lysates; assay type: biochemical; conditions: telomerase inhibition, mean ± SEM
Sequence (O14746 whole entry): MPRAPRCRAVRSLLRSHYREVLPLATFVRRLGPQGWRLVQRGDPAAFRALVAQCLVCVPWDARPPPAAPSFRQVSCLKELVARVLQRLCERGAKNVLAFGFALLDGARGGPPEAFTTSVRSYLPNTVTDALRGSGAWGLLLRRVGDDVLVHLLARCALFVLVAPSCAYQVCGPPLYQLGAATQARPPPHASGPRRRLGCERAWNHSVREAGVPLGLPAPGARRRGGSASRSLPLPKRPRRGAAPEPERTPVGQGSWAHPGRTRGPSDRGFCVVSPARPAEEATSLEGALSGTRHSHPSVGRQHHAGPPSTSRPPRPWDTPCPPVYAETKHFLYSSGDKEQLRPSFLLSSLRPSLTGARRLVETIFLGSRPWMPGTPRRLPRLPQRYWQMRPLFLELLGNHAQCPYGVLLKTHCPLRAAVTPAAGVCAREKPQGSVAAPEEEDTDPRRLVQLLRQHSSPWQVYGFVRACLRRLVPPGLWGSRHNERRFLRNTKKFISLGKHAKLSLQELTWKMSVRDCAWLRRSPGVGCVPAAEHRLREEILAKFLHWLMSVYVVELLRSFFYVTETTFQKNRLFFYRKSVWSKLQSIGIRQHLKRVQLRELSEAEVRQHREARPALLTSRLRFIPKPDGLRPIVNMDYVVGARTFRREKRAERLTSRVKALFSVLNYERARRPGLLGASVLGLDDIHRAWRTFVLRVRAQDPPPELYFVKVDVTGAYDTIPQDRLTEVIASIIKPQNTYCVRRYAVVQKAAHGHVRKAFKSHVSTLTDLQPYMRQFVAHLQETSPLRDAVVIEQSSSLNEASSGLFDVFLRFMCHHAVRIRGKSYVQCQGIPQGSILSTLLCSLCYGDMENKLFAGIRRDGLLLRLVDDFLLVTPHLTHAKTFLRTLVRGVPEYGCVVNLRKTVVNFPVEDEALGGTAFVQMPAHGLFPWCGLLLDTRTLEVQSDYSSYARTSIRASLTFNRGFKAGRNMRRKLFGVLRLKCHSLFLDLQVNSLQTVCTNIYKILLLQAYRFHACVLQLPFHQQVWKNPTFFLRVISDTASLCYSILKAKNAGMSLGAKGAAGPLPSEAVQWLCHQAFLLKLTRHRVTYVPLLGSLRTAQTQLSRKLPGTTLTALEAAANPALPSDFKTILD
Sequence (O60832 whole entry partner): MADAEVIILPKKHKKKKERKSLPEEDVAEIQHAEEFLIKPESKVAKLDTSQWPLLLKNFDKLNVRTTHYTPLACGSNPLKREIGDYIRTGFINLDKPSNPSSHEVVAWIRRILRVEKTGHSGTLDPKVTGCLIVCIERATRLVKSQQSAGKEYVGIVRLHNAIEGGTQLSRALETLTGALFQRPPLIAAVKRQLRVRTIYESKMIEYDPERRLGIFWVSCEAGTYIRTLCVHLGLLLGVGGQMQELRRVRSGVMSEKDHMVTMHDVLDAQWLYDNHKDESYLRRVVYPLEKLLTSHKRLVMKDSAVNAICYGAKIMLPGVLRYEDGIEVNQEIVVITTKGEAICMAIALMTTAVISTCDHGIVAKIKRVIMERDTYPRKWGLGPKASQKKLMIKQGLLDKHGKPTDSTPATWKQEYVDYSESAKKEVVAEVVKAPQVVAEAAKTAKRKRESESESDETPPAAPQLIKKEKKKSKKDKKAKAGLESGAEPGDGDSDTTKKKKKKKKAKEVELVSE
Sequence (Q9NX24 whole entry partner): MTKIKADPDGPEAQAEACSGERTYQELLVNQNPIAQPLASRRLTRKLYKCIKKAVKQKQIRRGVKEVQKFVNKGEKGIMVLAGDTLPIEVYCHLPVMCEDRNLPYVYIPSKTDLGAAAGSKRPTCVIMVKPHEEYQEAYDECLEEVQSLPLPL
Sequence (Q9NPE3 whole entry partner): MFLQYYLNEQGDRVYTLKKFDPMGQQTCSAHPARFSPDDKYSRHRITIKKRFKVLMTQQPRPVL
Sequence (Q9NY12 whole entry partner): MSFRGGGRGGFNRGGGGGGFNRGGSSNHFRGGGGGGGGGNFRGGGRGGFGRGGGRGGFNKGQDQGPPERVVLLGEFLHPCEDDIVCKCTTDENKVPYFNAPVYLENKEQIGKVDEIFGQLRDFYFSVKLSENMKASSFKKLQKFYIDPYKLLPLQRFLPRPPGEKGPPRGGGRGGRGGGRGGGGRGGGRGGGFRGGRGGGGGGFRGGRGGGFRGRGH
Sequence (Q9BUR4 whole entry partner): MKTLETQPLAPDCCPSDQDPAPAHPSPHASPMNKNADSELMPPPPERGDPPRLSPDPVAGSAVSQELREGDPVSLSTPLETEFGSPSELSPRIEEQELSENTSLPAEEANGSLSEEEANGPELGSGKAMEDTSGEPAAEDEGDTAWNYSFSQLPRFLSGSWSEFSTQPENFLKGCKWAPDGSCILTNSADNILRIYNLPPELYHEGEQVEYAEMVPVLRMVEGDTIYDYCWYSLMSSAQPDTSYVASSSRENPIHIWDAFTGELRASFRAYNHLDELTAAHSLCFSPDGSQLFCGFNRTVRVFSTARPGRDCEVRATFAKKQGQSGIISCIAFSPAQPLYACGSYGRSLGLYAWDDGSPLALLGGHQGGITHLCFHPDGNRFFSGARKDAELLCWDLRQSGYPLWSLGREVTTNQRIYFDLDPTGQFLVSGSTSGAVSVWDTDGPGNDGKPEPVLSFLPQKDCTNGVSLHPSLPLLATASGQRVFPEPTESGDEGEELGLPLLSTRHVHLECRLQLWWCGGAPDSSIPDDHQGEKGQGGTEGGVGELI
So basically, if IC90 comes in under 100 µM it's Satisfied, and if it's 100 µM or more it's Not satisfied.

Examples from the recorded data:
Record N#C/C(=C\c1c[nH]nc1-c1ccccc1)C(=O)Nc1sc2c(c1C#N)CCC2 [Compound 34a] : is its IC90 strictly below 100 µM? Not satisfied

Please determine if N#C/C(=C\c1ccc(C(F)(F)F)cc1)C(=O)Nc1sc2c(c1C#N)CCCC2 [Compound 25b] is below 100 µM in terms of IC90. Not satisfied

Quick check: does N#C/C(=C\c1cccc2c1OCO2)C(=O)Nc1sc2c(c1C#N)CCC2 [Compound 37a] have IC90 under 100 µM? Not satisfied

New cases:
State whether 100 µM exceeds IC90 recorded for N#C/C(=C\c1ccc(N2CCOCC2)cc1)C(=O)Nc1sc2c(c1C#N)CCC2 [Compound 30a] . Not satisfied

Hi there! Is IC90 for N#C/C(=C\c1cccc2c1OCO2)C(=O)Nc1sc2c(c1C#N)CCCC2 [Compound 37b] below 100 µM, do you know? Not satisfied

Consider N#C/C(=C\c1cccc(Cl)c1Cl)C(=O)Nc1sc2c(c1C#N)CCCC2 [Compound 28b] . Does its IC90 lie strictly below 100 µM? Satisfied

# strict comparison: is reported IC90 < 100 µM? input = CN1CCN(c2ccc(/C=C(\C#N)C(=O)Nc3sc4c(c3C#N)CCCC4)cc2)CC1 [Compound 31b] Not satisfied

Input N#C/C(=C\c1c[nH]c2ccccc12)C(=O)Nc1sc2c(c1C#N)CCCC2 [Compound 39b] ; condition: IC90 strictly below 100 µM. Does it hold? Satisfied

----------
In this section we review reported melting point values for a set of molecules.

Solved cases below.
Return reported melting point. Input molecule: N#C/C(=C\c1cccc(Cl)c1Cl)C(=O)Nc1sc2c(c1C#N)CCC2 [Compound 28a] 302 to 304 °C

Recall and state the measured melting point for N#C/C(=C\c1cccc(Cl)c1Cl)C(=O)Nc1sc2c(c1C#N)CCCC2 [Compound 28b] . 232 to 234 °C

New cases:
Read off the recorded melting point for N#C/C(=C\c1ccc(N2CCOCC2)cc1)C(=O)Nc1sc2c(c1C#N)CCCC2 [Compound 30b] 246 to 248 °C

----------
target: telomerase (Homo sapiens, UniProt O14746); construct: A549 cells (human epithelial cell lung carcinoma, ATCC, Manassas, VA) were lysed in; experiment: TRAP / RTQ-TRAP telomerase activity assay in A549 cell-free lysates; conditions: telomerase inhibition, mean ± SEM;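 also: telomerase activity measured in cell-free extracts of human A549 epithelial lung carcinoma cells, tested across a range of inhibitor concentrations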
pIC50: −log10 of the molar value.
Classify as follows. Reported pIC50 greater than or equal to 5: true. Reported pIC50 below: false.

Known results for molecules:
Quick check: does N#C/C(=C\c1c[nH]nc1-c1ccccc1)C(=O)Nc1sc2c(c1C#N)CCC2 [Compound 34a] have pIC50 greater than or equal to 5? false

Please tell me: is the molecule COc1cc(/C=C(\C#N)C(=O)Nc2sc3c(c2C#N)CCC3)ccc1OCc1ccccc1 [Compound 32a] at or over 5 in terms of pIC50? true

# input for lookup
Textbook exercise: given the entry N#C/C(=C\c1cccc2ccccc12)C(=O)Nc1sc2c(c1C#N)CCCC2 [Compound 35b] , state whether its pIC50 is greater than or equal to 5. true
